# assayedTarget: B-Raf (V600E)-kinase (Homo sapiens (Human), UniProt P15056, V600E)
# Sequence (P15056 whole entry V600E): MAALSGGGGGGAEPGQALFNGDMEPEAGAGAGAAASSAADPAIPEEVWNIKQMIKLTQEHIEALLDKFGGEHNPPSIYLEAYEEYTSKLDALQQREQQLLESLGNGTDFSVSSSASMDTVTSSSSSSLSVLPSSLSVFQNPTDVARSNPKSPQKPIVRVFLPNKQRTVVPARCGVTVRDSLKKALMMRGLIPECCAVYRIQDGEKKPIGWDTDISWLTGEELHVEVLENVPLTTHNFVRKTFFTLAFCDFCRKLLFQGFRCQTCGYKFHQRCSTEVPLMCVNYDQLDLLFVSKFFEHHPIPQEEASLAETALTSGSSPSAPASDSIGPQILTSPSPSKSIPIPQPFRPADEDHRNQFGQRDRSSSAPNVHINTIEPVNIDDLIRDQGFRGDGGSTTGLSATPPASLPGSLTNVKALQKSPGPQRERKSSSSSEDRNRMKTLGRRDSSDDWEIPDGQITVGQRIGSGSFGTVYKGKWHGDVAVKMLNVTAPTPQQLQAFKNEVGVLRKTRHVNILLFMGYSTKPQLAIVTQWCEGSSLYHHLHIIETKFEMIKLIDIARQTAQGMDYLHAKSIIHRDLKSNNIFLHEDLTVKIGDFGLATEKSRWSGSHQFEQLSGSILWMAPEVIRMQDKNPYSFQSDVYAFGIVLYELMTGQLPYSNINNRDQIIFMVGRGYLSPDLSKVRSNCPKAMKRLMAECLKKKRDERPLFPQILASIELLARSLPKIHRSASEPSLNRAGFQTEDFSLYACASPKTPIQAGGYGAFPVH
# methodNotes: Kinase test B-RAF (V600E)
# Format: biochemical
# testSettings: B-RAF (V600E) kinase test, 250 μM ATP
pIC50: −log10 of the molar value.
endpoint: pIC50

Consider the following illustrative entries.
CN(C)C1CCN(c2ncc3ncnc(Nc4cc(C(=O)Nc5cc(C(C)(C)C)on5)ccc4F)c3n2)CC1
8.52
Cc1ccc(NC(=O)c2cc(N3CCN(C)CC3)cc(C(F)(F)F)c2)cc1Nc1ncnc2cnc(N(C)C)nc12
8.52
Cc1ccc(C(=O)Nc2cc(C(C)(C)C)on2)cc1Nc1ncnc2cnc(N3CC[C@H](F)C3)nc12
8.30

(I) CCN1CCN(c2cc(NC(=O)c3ccc(C)c(Nc4ncnc5cnc(N6CCOCC6)nc45)c3)cc(C(F)(F)F)c2)CC1
(II) Cc1ccc(C(=O)Nc2cccc(OC(F)(F)F)c2)cc1Nc1ncnc2cnc(N3CCOCC3)nc12
(III) COc1ccc(NC(=O)c2ccc(Cl)c(Nc3ncnc4cnc(N5CCN(C)CC5)nc34)c2)cc1C(F)(F)F
Enquiry: Kindly order the items shown according to pIC50, from the highest value down. Put the labels in the requested order and list them out.
Return: II, I, III

###

# assayedTarget: B-Raf (V600E)-kinase (Homo sapiens (Human), UniProt P15056, V600E)
# methodNotes: Kinase test B-RAF (V600E)
# Format: biochemical
# testSettings: B-RAF (V600E) kinase test, 250 μM ATP
endpoint: IC50 (nM)

Cn1nc(C(C)(C)C)cc1NC(=O)c1cc(Cl)cc(Nc2ncnc3cnc(N4CCOCC4)nc23)c1
7
COCCN1CCN(c2ncc3ncnc(Nc4cc(C(=O)Nc5ccc6c(c5)OC(F)(F)OC6(F)F)ccc4C)c3n2)CC1
7

(A) COCCN(C)c1ncc2ncnc(Nc3cc(C(=O)Nc4ccc(OC)c(C(F)(F)F)c4)ccc3F)c2n1
(B) COc1ccc(C(F)(F)F)cc1NC(=O)c1ccc(C)c(Nc2ncnc3cnc(N4CCN(C)CC4)nc23)c1
(C) Cc1ccc(C(=O)NCc2ccc(C(C)(C)C)cc2)cc1Nc1ncnc2cnc(N3CC[C@@H](F)C3)nc12
Enquiry: Order the entries by their reported IC50, beginning at the minimum. Put the labels in the requested order and list them out.
Return: A, B, C

###

# assayedTarget: B-Raf (V600E)-kinase (Homo sapiens (Human), UniProt P15056, V600E)
# methodNotes: Kinase test B-RAF (V600E)
# Format: biochemical
# testSettings: B-RAF (V600E) kinase test, 250 μM ATP
pIC50: −log10 of the molar value.
endpoint: pIC50

Cc1ccc(NC(=O)c2cccc(C(F)(F)F)c2)cc1Nc1ncnc2c(N)nc(N3CCN(C(C)C)CC3)nc12
7.89
Cn1nc(C(C)(C)C)cc1NC(=O)c1cc(Cl)cc(Nc2ncnc3cnc(N4CCCC4)nc23)c1
8.40
Cc1ccc(C(=O)Nc2cc(C(C)(C)C)on2)cc1Nc1ncnc2cnc(N3CCN(CCCN4CCCC4)CC3)nc12
9.00
Cc1ccc(C(=O)Nc2ccccc2)cc1Nc1ncnc2cnc(N3CCCC3)nc12
6.30
Cc1ccc(C(=O)Nc2cc(C(C)(C)C)n[nH]2)cc1Nc1ncnc2cnc(NCc3ccccc3)nc12
8.70

(a) Cc1ccc(C(=O)Nc2cc(C(C)(C)C)on2)cc1Nc1ncnc2cnc(N(C)C3CCOC3)nc12 (stereo not drawn)
(b) Cc1cn(-c2ncc3ncnc(Nc4cc(C(=O)Nc5cc(C(C)(C)C)on5)ccc4C)c3n2)cn1
Enquiry: Which is greater in pIC50, the first item a or the second item b ? Reply briefly: the label of your chosen item.
Return: a
(a: 9.00, b: 8.70)

(I) Cc1ccc(C(=O)Nc2cc(C(C)(C)C)on2)cc1Nc1ncnc2cnc(NCC3CCCCO3)nc12 (stereo not drawn)
(II) CN1CCCN(c2nc(N)c3ncnc(Nc4cc(C(=O)Nc5cccc(C(F)(F)F)c5)ccc4Cl)c3n2)CC1
(III) Cc1ccc(C(=O)Nc2cc(C(C)(C)C)on2)cc1N(C)c1ncnc2cnc(N3CC[C@H](F)C3)nc12
(IV) CC(C)(C#N)c1cccc(NC(=O)c2ccc(F)c(Nc3ncnc4cnc(N5CCOCC5)nc34)c2)c1
(V) COc1ccc(C(=O)Nc2cccc(C(F)(F)F)c2)cc1Nc1ncnc2c(N)nc(N3CCN(C4CCN(C)CC4)CC3)nc12
Enquiry: Order the entries by their reported pIC50, beginning at the minimum. Put the labels in the requested order and list them out.
Return: III, V, II, IV, I

(1) COCCN1CCN(c2ncc3ncnc(Nc4cc(C(=O)Nc5cc(C(F)(F)F)ccc5Cl)ccc4C)c3n2)CC1
(2) COc1ccc(NC(=O)c2ccc(C)c(Nc3ncnc4cnc(N(C)C5CCOC5)nc34)c2)cc1C(F)(F)F (stereo not drawn)
Enquiry: // pick min by pIC50: 1 , 2 Reply briefly: the label of your chosen item.
Return: 1
(1: 8.22, 2: 8.52)

(1) Cc1ccc(C(=O)Nc2cc(C(C)(C)C)on2)cc1Nc1ncnc2cnc(N(C)C3CC(N4CCN(C)CC4)C3)nc12 (stereo not drawn)
(2) Cc1ccc(NS(=O)(=O)CC2CCCO2)cc1Nc1ncnc2cnc(N3CCN(C)CC3)nc12 (stereo not drawn)
Enquiry: // pick min by pIC50: 1 , 2 Reply briefly: the label of your chosen item.
Return: 2
(2: 5.70, 1: 8.70)

###

# assayedTarget: B-Raf (V600E)-kinase (Homo sapiens (Human), UniProt P15056, V600E)
# methodNotes: Kinase test B-RAF (V600E)
# Format: biochemical
# testSettings: B-RAF (V600E) kinase test, 250 μM ATP
endpoint: IC50 (nM)

COc1c(CNC(C)C)cc(C(F)(F)F)cc1NC(=O)c1ccc(C)c(Nc2ncnc3cnc(N4CC[C@H](F)C4)nc23)c1
12
COc1ccc(NC(=O)c2ccc(C)c(Nc3ncnc4cnc(N5CC[C@H](F)C5)nc34)c2)cc1C(F)(F)F
3
Cc1ccc(C(=O)Nc2cccc(C(C)(C)C#N)c2)cc1Nc1ncnc2cnc(NCC(C)C)nc12
2
COCCN(C)c1ncc2ncnc(Nc3cc(C(=O)Nc4cc(OCCN(C)C)cc(C(F)(F)F)c4)ccc3C)c2n1
2
Cc1ccc(C(=O)NCc2cccc(C(C)(C)C)c2)cc1Nc1ncnc2cnc(N3CCN(C)CC3)nc12
50
Cc1ccc(C(=O)Nc2cccc(C(F)(F)F)c2)cc1Nc1ncnc2c(N)nc(N3CCCN(c4ccccn4)CC3)nc12
3
CCS(=O)(=O)Nc1ccc(C)c(Nc2ncnc3cnc(N4CCN(C)CC4)nc23)c1
521
COc1c(CN2CCCC2)cc(C(F)(F)F)cc1NC(=O)c1ccc(C)c(Nc2ncnc3cnc(N4CCOCC4)nc23)c1
2

(P) CN1CCCN(c2nc(N)c3ncnc(Nc4cccc(C(=O)Nc5cccc(C(F)(F)F)c5)c4)c3n2)CC1
(Q) COc1ccc(NC(=O)c2ccc(F)c(Nc3ncnc4cnc(N5CCCC5)nc34)c2)cc1C(F)(F)F
(R) Cc1ccc(C(=O)Nc2cccc(C(F)(F)F)c2)cc1Nc1ncnc2cnc(N3CCNCC3)nc12
Enquiry: Order the entries by their reported IC50, beginning at the minimum. Put the labels in the requested order and list them out.
Return: R, Q, P

(I) Cc1ccc(C(=O)Nc2ccc(F)c(C(F)(F)F)c2)cc1Nc1ncnc2cnc(N3CCN(C)CC3)nc12
(II) COCCN1CCN(c2ncc3ncnc(Nc4cc(C(=O)Nc5cc(C(C)(C)C)on5)ccc4C)c3n2)CC1
Enquiry: // pick min by IC50: I , II Reply briefly: the label of your chosen item.
Return: I
(I: 1 nM, II: 3 nM)

###

# assayedTarget: B-Raf (V600E)-kinase (Homo sapiens (Human), UniProt P15056, V600E)
# methodNotes: Kinase test B-RAF (V600E)
# Assay type: biochemical
# testSettings: B-RAF (V600E) kinase test, 250 μM ATP
endpoint: IC50 (nM)

(P) CC(C)(C)c1cc(NC(=O)c2ccc(Cl)c(Nc3ncnc4cnc(N5CCCCC5)nc34)c2)no1
(Q) Cc1ccc(C(=O)Nc2ccc(Cl)c(C(F)(F)F)c2)cc1Nc1ncnc2cnc(N3CCCC3)nc12
Enquiry: // pick min by IC50: P , Q Reply briefly: the label of your chosen item.
Return: P

###

# assayedTarget: B-Raf (V600E)-kinase (Homo sapiens (Human), UniProt P15056, V600E)
# methodNotes: Kinase test B-RAF (V600E)
# Format: biochemical
# testSettings: B-RAF (V600E) kinase test, 250 μM ATP
pIC50: −log10 of the molar value.
endpoint: pIC50

(P) Cc1ccc(C(=O)Nc2ccc(Cl)c(C(F)(F)F)c2)cc1Nc1ncnc2cnc(N3CCCN(C)CC3)nc12
(Q) COc1ccc(NC(=O)c2ccc(C)c(Nc3ncnc4cnc(N5C[C@@H](C)N[C@@H](C)C5)nc34)c2)cc1C(F)(F)F
(R) Cc1ccc(C(=O)Nc2cccc(C(F)(F)F)c2)cc1Nc1ncnc2cnc(N3CCCC3)nc12
(S) CCN1CCN(c2cc(NC(=O)c3ccc(C)c(Nc4ncnc5c(N)nc(N6CC[C@H](F)C6)nc45)c3)cc(C(F)(F)F)c2)CC1
Enquiry: Rank ascending by pIC50. Put the labels in the requested order and list them out.
Return: S, P, Q, R
(S: 8.00, P: 8.30, Q: 8.70, R: 9.00)

Reference source: patent US8653087B2
